Data provenance is paper PMC2855520.

System: HSV1
Details: read-out: IC50 Concentration (μM) HSV1; plaque reduction assay, Vero cells, 90 PFU/well, peptide present 1 h, plaques counted after 2 d; averages for several experiments
READOUT KIND: IC50

- POLYMER SEQUENCE: "PYSDELRQRLAARLEALKENGG [apoA1-H7]"
  READOUT KIND: "IC50"
  OBSERVED: "> 40 µM"
- POLYMER SEQUENCE: "PLGEEMRDRARAHVDALRTHLA [apoA1-H6]"
  READOUT KIND: "IC50"
  OBSERVED: "> 40 µM"
- POLYMER SEQUENCE: "VTDYGKDLMEKVKSPELQ [apoAII 18-35]"
  READOUT KIND: "IC50"
  OBSERVED: "> 40 µM"
- POLYMER SEQUENCE: "PYLDDFQKKWQEEMELYRQKVE [apoA1-H4]"
  READOUT KIND: "IC50"
  OBSERVED: "> 40 µM"
- POLYMER SEQUENCE: "CKNKEKKCCKNKEKKC [apoH(281-288)dp]"
  READOUT KIND: "IC50"
  OBSERVED: "> 40 µM"
- POLYMER SEQUENCE: "VTDYGKDLMEKVKEWLNS [apoAII 18-30+]"
  READOUT KIND: "IC50"
  OBSERVED: "> 40 µM"
